Ref: ChEMBL document CHEMBL1126780

# Subject of test: Human immunodeficiency virus type 1 reverse transcriptase (Human immunodeficiency virus 1, UniProt Q72547)
pIC50: −log10 of the molar value.
# reported pIC50; entries follow
Endpoint label: pIC50

>>> result_value("O=C1c2ccccc2C2(c3ccncc3)SCCN12 (centres undefined)")
"< 4.52"
>>> result_value("O=C1c2ccccc2C2(c3ccccc3)NCCCN12 (centres undefined)")
"< 5.00"
>>> result_value("O=C1c2cnccc2C2(c3ccccc3)SCCN12 (centres undefined)")
"< 4.00"
>>> result_value("O=C1c2ncccc2C2(c3ccccc3)SCCN12 (centres undefined)")
"< 4.00"
